system: Probable G-protein coupled receptor 142 (Homo sapiens)
Sequence (Q7Z601 whole entry): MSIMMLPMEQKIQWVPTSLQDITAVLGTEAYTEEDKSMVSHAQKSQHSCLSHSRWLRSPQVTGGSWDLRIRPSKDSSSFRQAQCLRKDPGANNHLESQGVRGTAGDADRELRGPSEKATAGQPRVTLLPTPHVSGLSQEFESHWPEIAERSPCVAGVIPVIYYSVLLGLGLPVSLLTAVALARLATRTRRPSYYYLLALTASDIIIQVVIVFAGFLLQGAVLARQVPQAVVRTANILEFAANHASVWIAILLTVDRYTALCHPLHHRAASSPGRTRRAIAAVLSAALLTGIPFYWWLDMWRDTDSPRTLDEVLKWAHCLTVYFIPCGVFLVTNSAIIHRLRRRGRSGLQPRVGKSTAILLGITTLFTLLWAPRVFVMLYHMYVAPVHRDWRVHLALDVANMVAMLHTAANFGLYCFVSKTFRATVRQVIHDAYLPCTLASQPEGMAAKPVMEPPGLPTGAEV
method description: Agonist activity at human GPR142 expressed in HEK293 cells assessed as inositol phosphate accumulation after 1 hr by scintillation counting
reported property: EC50 (nM)
The reply should be a number in nM, with the unit left off.

A selection of reference data follows.
1. O=C(Nc1cc(-c2ccncc2)c[nH]c1=O)[C@H](Cc1ccccc1)NC[C@H]1CCCO1 = 390
2. Cn1cncc1-c1nnc(NC(=O)[C@H](Cc2ccccc2)NCc2cscn2)s1 = 180
3. Cn1ccc(CN[C@@H](Cc2ccccc2)C(=O)Nc2cc(-c3ccncc3)c[nH]c2=O)n1 = 210
4. Cc1cc(CN[C@@H](Cc2ccccc2)C(=O)Nc2cc(-c3ccncc3)c[nH]c2=O)no1 = 2200

Turning to the following compound.
(Q) Enter reported EC50 observed with Probable G-protein coupled receptor 142 (Homo sapiens) for "O=C(Nc1nnc(-c2ccncc2)s1)[C@H](Cc1ccccc1)NCc1cscn1"
(A) 86

Data origin: ChEMBL document CHEMBL2163318
